In this section, each of the binders is paired with its reported Kd.
Biological target: T1, HuCD3E (Homo sapiens, UniProt P07766 23-126, limits assumed)
T1 construct: Recombinant analyte in SPR and antigen in ELISA; also called human CD3; human CD3 epsilon
T1 sequence (P07766 23-126 limits assumed): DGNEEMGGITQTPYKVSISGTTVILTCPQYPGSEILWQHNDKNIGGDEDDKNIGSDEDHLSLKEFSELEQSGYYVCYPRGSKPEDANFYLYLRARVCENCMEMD
Experiment: SPR, Biacore 8K; CD3 Affinity column: Hi
property measured: Kd

{"binder": "47D10-V7 x huSP34-v5 (bispecific antibody, V domains shown, The name reads as 47D10-V7 arm x huSP34-v5 arm) VH: EVQLVESGGGLVQPGGSLKLSCAASGFTFNTYAMNWVRQAPGKGLEWVARIRSKYNNYATYYADSVKDRFTISRDDSKNTAYLQMNSLKTEDTAVYYCVRHGNFGNSYVSWFAYWGQGTLVTVSS VL: QTVVTQEPSLTVSPGGTVTLTCRSSTGAVTTSNYANWVQQKPGQAFRGLIGGTNKRAPGVPARFSGSLLGGKAALTLSGVQPEDEAIYFCALWYSNLWVFGGGTKLEIK", "reported": "< 10 nM"}
{"binder": "ABP100s.11.0 (antibody, V domains shown) VH: EVQLLESGGGLVQPGGSLRLSCAASGFTFNTYAMNWVRQAPGKGLEWVSRIRSKYNNYATYYADSVKDRFTISRDNSKNTLYLQMNSLRAEDTAVYYCAKHGNFGNSYVSWFAYWGQGTTVTVSS VL: QAVVTQEPSLTVSPGGTVTLTCRSSTGAVTTSNYANWFQQKPGQAPRTLIYGTNKRAPWTPARFSGSLLGGKAALTLSGAQPEDEAEYYCALWYSNLWVFGGGTKLTVL", "reported": "< 10 nM"}
{"binder": "32G4-V8 x huSP34-v5 (N297A, K322A) (bispecific antibody, V domains shown, The name carries the substitutions N297A, K322A) VH: EVQLVESGGGLVQPGGSLKLSCAASGFTFNTYAMNWVRQAPGKGLEWVARIRSKYNNYATYYADSVKDRFTISRDDSKNTAYLQMNSLKTEDTAVYYCVRHGNFGNSYVSWFAYWGQGTLVTVSS VL: QTVVTQEPSLTVSPGGTVTLTCRSSTGAVTTSNYANWVQQKPGQAFRGLIGGTNKRAPGVPARFSGSLLGGKAALTLSGVQPEDEAIYFCALWYSNLWVFGGGTKLEIK", "reported": "< 10 nM"}

All figures here come from patent US20250340637A1.
